test: Toxicity liver stage against HepG2, at 10uM; assay type: cell-based; set-up: test concentration 10 uM, cell line HepG2-A16-CD81EGFP; conditions: human, HepG2-A16-CD81EGFP cells; read-out: INHIBITION
# cytotoxicity at 10 µM per entry
measured.quantity: cytotoxicity at 10 µM (%)

>>> numeric_value("CCCNc1cc(-c2c[nH]nc2C2CCN(C(=O)C3CCC3)C2)ccn1 (stereo unspecified)")
82
>>> numeric_value("Cc1ccc(C(=O)N2CCO[C@H]3[C@H](OCc4ccccn4)CC[C@@H]32)o1")
-148
>>> numeric_value("CN(Cc1n[nH]c2c1CCCC2)C(=O)c1cccc(CCC(C)(C)O)c1")
-3.87
>>> numeric_value("CN(C)C[C@@H]1C[C@@H]2CN(Cc3nccn3C)CC[C@@H]2N1CC1CC1")
-101
>>> numeric_value("CN(C)c1ccc(C(=O)N2C[C@@H](CN3CCCCC3)[C@@H](CO)C2)cc1")
-1.72
>>> numeric_value("CCc1cnc(N2CCOC(CCOC)C2)nc1 (stereo unspecified)")
-3.88
>>> numeric_value("COc1ccc(Br)c(C(=O)NC(CC(=O)O)c2cccs2)c1 (stereo unspecified)")
-3.48
>>> numeric_value("c1csc(CN2CCCn3cnc(CN4CCCC4)c3C2)c1")
-72.7
>>> numeric_value("NC(=O)c1ccnc(N2CCCC(CO)(Cc3ccccc3)C2)c1 (stereo unspecified)")
11.6
>>> numeric_value("O=C(NCCN1CCNC1=O)c1cc(-c2ccc(O)cc2)n[nH]1")
6.27
>>> numeric_value("CC(C)Oc1cccc(C(=O)C2CCCN(C(=O)c3cncs3)C2)c1 (stereo unspecified)")
3.19
>>> numeric_value("CCO[C@H]1C[C@@H](O)C12CCN(C1CCN(c3ccccc3)CC1)CC2")
4.24
>>> numeric_value("COCCN1CCN(C(=O)NC2CC2)Cc2ccc(C)nc21")
3.51
>>> numeric_value("Cn1ccnc1CN1CCC2(CC1)CN(c1cncnc1)C(=O)CO2")
-69.2
>>> numeric_value("CS(=O)(=O)NCCCNCc1cc(F)ccc1Br")
15.7
>>> numeric_value("O=C1NCC2(CCCN(C(=O)Nc3cccc(-c4cscn4)c3)CC2)O1 (stereo unspecified)")
-4.54
>>> numeric_value("Cc1cc(N2CCC(c3nnc(CN(C)C)n3C3CC3)CC2)ccn1")
7.57
>>> numeric_value("CC(C)CS(=O)(=O)CC(=O)NC(C)(C)c1cccc(F)c1")
-1.12
>>> numeric_value("CCC(Nc1nc(C)nc2c1cnn2C)c1ncnn1CC (stereo unspecified)")
-7.17
>>> numeric_value("CC(NC(=O)NC1CCN(Cc2ccncc2)CC1)c1ccc(F)cc1 (stereo unspecified)")
7.9
>>> numeric_value("CCOC1CCCN(C(=O)c2cnc3c(cnn3C3CCCC3)c2)C1 (stereo unspecified)")
-3.74
>>> numeric_value("CC1CCCN(Cc2ccnc(-c3cccnc3)n2)C1 (stereo unspecified)")
-6.57
>>> numeric_value("C=C(C)COc1cccc(C(=O)N(CC)Cc2nccn2C)c1")
-4.69
>>> numeric_value("Cc1ccc(C(NC(=O)Cn2cc(C3CC3)nn2)C2CC2)cc1 (stereo unspecified)")
-5.36
>>> numeric_value("O=c1[nH]c(NCc2cccc(OC(F)F)c2)nc2c1CCNC2")
2.47
>>> numeric_value("O=C(NCCc1cccc(O)c1)NC1CCN(c2ccccc2)C1=O (stereo unspecified)")
5.68
>>> numeric_value("CC(C)C1CN(Cc2cnc(N(C)C)nc2)CCCN1CC1CC1 (stereo unspecified)")
-6
>>> numeric_value("CC(C)C(C)(C#N)NC(=O)Cn1nnc(-c2cc3ccccc3o2)n1 (stereo unspecified)")
5.76
>>> numeric_value("COc1cc(NC(=O)C2CC(=O)N(c3cccc(F)c3)C2)ncn1 (stereo unspecified)")
-1.73
>>> numeric_value("Cc1nnc(CN2CCC(Oc3ccc(C)c(C)c3)CC2)o1")
7.27
>>> numeric_value("COc1ccc2c(ccn2CCC(=O)/N=c2\\[nH]nc(C3CCCO3)s2)c1 (stereo unspecified)")
-8.07
>>> numeric_value("CCC1CN(C(=O)COc2ccc(NC(C)=O)cc2)CCO1 (stereo unspecified)")
-9.4
>>> numeric_value("NCc1ccc(Oc2ccc(F)c(F)c2)cc1C(F)(F)F")
-0.587
>>> numeric_value("CC(C)c1nnc2n1CC(CNCc1nc3ccccc3s1)CC2 (stereo unspecified)")
13
>>> numeric_value("CC1(C)OCC2(CO1)CN(C(=O)c1cccc3ccccc13)C2")
-7.81
>>> numeric_value("CC(NC(=O)CCc1nc(-c2nnc[nH]2)no1)c1ccc(F)cc1F (stereo unspecified)")
-2.05
>>> numeric_value("CCc1nn(C)c(Cl)c1CN1CCN(c2ccc(C(N)=O)cn2)CC1")
9.83
>>> numeric_value("CCn1c(C)nnc1CN(C)C1CCN(CC2CCC2)C1 (stereo unspecified)")
-11.5
>>> numeric_value("CCN(CC)C(=O)Cn1ccc2cc(NC(=O)C3CCCO3)ccc21 (stereo unspecified)")
1.35
>>> numeric_value("Cc1n[nH]cc1CNC(C)c1cccc(N2CCCC2=O)c1 (stereo unspecified)")
6.05
>>> numeric_value("CC(C)CN1CC2(CCN(C(=O)c3cnccn3)CC2)CC1=O")
2.46
>>> numeric_value("COc1ccc(N2CCC(N3CCOC(C(F)(F)F)C3)CC2)cc1 (stereo unspecified)")
-20.5
>>> numeric_value("Cc1cccc(C(=O)N2CCCC2)c1NCC(=O)NC1(C#N)CCCC1")
-11.5
>>> numeric_value("O=C(c1ccccc1)N1CCN(CC2CCOc3ccccc3C2)CC1 (stereo unspecified)")
-0.966
>>> numeric_value("CCc1sc(-c2nnc(CNC(C)Cn3cccn3)o2)cc1C (stereo unspecified)")
0.749
>>> numeric_value("CCC[C@H]1CN(S(=O)(=O)N(C)Cc2ccccc2)C[C@@H]1N")
-138

---

cytotoxicity at 10 µM values by entry
experiment: Toxicity liver stage against HepG2, at 10uM; assay type: cell-based; design: test concentration 10 uM, cell line HepG2-A16-CD81EGFP; details: human, HepG2-A16-CD81EGFP cells; read-out: INHIBITION
measured.quantity: cytotoxicity at 10 µM (%)

>>> numeric_value("CCN1CCCC(O)(CN(C)Cc2ccccc2F)C1 (configuration not stated)")
-6.43
>>> numeric_value("Cc1ccccc1S(=O)(=O)N1CCC(c2[nH]ncc2C)C1 (configuration not stated)")
-21.1
>>> numeric_value("Cc1nsc(NC(=O)NC2CCOCC2)n1")
-10.1
>>> numeric_value("Cc1cc(NC(=O)CCc2ccsc2)n(C)n1")
17.8
>>> numeric_value("CNc1nc2ncc(Cl)cc2cc1C#N")
5.05
>>> numeric_value("CC(C)(C)NC(=O)NC(=O)CNC(C)(C)c1ccc2c(c1)OCCO2")
-8.72
>>> numeric_value("CC(C)OC(=O)N1CCC(Cc2ccc(C(=O)O)cc2)C1 (configuration not stated)")
3.38
>>> numeric_value("COCCn1ccnc1CN(Cc1ccccn1)Cc1sccc1C")
2.16
>>> numeric_value("Cc1n[nH]c(C)c1C1COCCN1C(=O)c1cc(F)ccc1F (configuration not stated)")
-9.24
>>> numeric_value("CCn1ncc(C(=O)NCCc2nc(-c3ccc(C)cc3)n[nH]2)c1C")
8
>>> numeric_value("CN1CCCCC1(C)C(=O)N1CCC(c2ccccn2)CC1 (configuration not stated)")
1.66
>>> numeric_value("CC(=O)N1C[C@@H]2CN(S(=O)(=O)C3CC3)CCO[C@@H]2C1")
-107

---

Reported cytotoxicity at 10 µM values for the following molecules.
assay: Toxicity liver stage against HepG2, at 10uM; type: cell-based; set-up: test concentration 10 uM, cell line HepG2-A16-CD81EGFP; conditions: human, HepG2-A16-CD81EGFP cells; read-out: INHIBITION
measured.quantity: cytotoxicity at 10 µM (%)

>>> numeric_value("CNC(=O)COc1ccccc1CNC1CCc2nc(C)nn2C1 (stereo unspecified)")
6.56
>>> numeric_value("O=C(NCCCn1nc2ccccn2c1=O)NC(C1CC1)C1CC1")
2.74
>>> numeric_value("CCOC(=O)N1CCC2(CCNC2)C1 (stereo unspecified)")
2.14
>>> numeric_value("O=C1C[C@@H]2CC[C@H](CN1)N2c1cc(-c2ccccc2F)nc2ccnn12")
20.4
>>> numeric_value("CN1C[C@H](O)[C@]2(CCN(Cc3ccc(F)c(F)c3)C2)S1(=O)=O")
-1.42
>>> numeric_value("Fc1cccnc1O[C@@H]1CC[C@H]2[C@H]1OCCN2Cc1nccs1")
4.93
>>> numeric_value("c1cnnc(N2CCCC2CNCc2csc(-c3ccco3)n2)c1 (stereo unspecified)")
-8.42
>>> numeric_value("CC(c1ccccc1)n1c(SCC(=O)O)nnc1-c1ccn[nH]1 (stereo unspecified)")
-0.0682
>>> numeric_value("Cc1n[nH]c(C)c1CC(=O)N1CC[C@@](C)(O)[C@H](Oc2ccccc2)C1")
2.85
>>> numeric_value("Cc1ccc(C(C)NC(=O)N2CCNC(=O)CC2)cc1F (stereo unspecified)")
18.9
>>> numeric_value("CCOc1ccccc1CN1CCc2nc3ccsc3c(=O)n2CC1")
-5.81

// data source = ChEMBL document CHEMBL4513216
